Data origin: the supplement of paper PMC9112550

Tested on: Escherichia coli TOP10;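 also: peptides expressed intracellularly from a pBAD plasmid library in pooled LB shake-flask culture, induced with 0.3% L-arabinose, DNA abundance read by NGS, three biological replicates, DESeq2 with apeglm shrinkage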
test description: shrunken log2 fold change of peptide-encoding DNA abundance (4.5 h post-induction vs induction); higher = less antimicrobial activity (less host growth inhibition)
measurement parameters: time post-induction: 4.5 h; library: site-saturation at positions 5, 18, 19, 20
Entries annotated with measured shrunken log2 fold change

sequence code | shrunken log2 fold change
RRIRGRPPRLPRPRPRPAQHPRP | 0.378
RRIRFRPPRLPRPRPRPEWFPRP | 0.0431
RRIRERPPRLPRPRPRPYCGPRP | -0.109
RRIRCRPPRLPRPRPRPFFYPRP | -0.32
RRIRDRPPRLPRPRPRPQWWPRP | 0.274
RRIRPRPPRLPRPRPRPLFYPRP | -0.383
RRIRIRPPRLPRPRPRPGKSPRP | -0.0715
RRIRPRPPRLPRPRPRPPLFPRP | 0.36
RRIRLRPPRLPRPRPRPIFGPRP | 0.0171
RRIRGRPPRLPRPRPRPFNRPRP | -0.0104

In: State shrunken log2 fold change (Escherichia coli TOP10) of RRIRCRPPRLPRPRPRPEKWPRP .
Out: -0.0207

In: State shrunken log2 fold change (Escherichia coli TOP10) of RRIRMRPPRLPRPRPRPVAIPRP .
Out: 0.104

In: State shrunken log2 fold change (Escherichia coli TOP10) of RRIRTRPPRLPRPRPRPPIWPRP .
Out: 0.477

In: State shrunken log2 fold change (Escherichia coli TOP10) of RRIRWRPPRLPRPRPRPSMFPRP .
Out: -0.0441
